Just for reference, the Human Domainome abundance scans (Beltran et al. 2025) is where these values come from.

B1: Gamma-crystallin S, residues 96 to 176; numbered along this chain, P22914 (parent)
chain: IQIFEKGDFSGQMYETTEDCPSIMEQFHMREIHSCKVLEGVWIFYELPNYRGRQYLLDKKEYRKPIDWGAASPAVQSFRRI

- Variants of: B1
- assay remarks: abundance fitness (aPCA) (normalised: wild type 0, dead -1); higher = more abundant; growth selection in yeast, the domain comes from the species named
- stated conditions: Homo sapiens
metric: abundance fitness
Answer with a number only.

Given the variant R63Y , what is its reported abundance fitness?
-0.158

Given the variant Y50T , what is its reported abundance fitness?
-0.949

Given the variant E31A , what is its reported abundance fitness?
0.066

Given the variant G11W , what is its reported abundance fitness?
-0.171

Given the variant E46I , what is its reported abundance fitness?
-0.777

Given the variant V37Y , what is its reported abundance fitness?
-0.769

Given the variant F9V , what is its reported abundance fitness?
-0.12

Given the variant A70F , what is its reported abundance fitness?
-0.025

Given the variant Q54R , what is its reported abundance fitness?
-0.013

Given the variant V37A , what is its reported abundance fitness?
0.081

Given the variant I66Q , what is its reported abundance fitness?
0.185

Given the variant V41C , what is its reported abundance fitness?
-0.112

Given the variant K64C , what is its reported abundance fitness?
-0.146

Given the variant C20L , what is its reported abundance fitness?
-0.142

Given the variant S72C , what is its reported abundance fitness?
-0.107

Given the variant M29V , what is its reported abundance fitness?
0.034

Given the variant S10G , what is its reported abundance fitness?
-0.004

Given the variant L38T , what is its reported abundance fitness?
0.012

Given the variant S34D , what is its reported abundance fitness?
-0.898

Given the variant T16E , what is its reported abundance fitness?
0.046

Given the variant G40M , what is its reported abundance fitness?
-0.464

Given the variant M13K , what is its reported abundance fitness?
-0.032

Given the variant F44A , what is its reported abundance fitness?
-0.007

Given the variant G7H , what is its reported abundance fitness?
0.013

Given the variant P21V , what is its reported abundance fitness?
0.009

Given the variant A70H , what is its reported abundance fitness?
0.32

Given the variant Q26K , what is its reported abundance fitness?
-0.079

Given the variant Y45K , what is its reported abundance fitness?
-0.712

Given the variant V41T , what is its reported abundance fitness?
0.096

Given the variant E31Y , what is its reported abundance fitness?
0.116

Given the variant H28S , what is its reported abundance fitness?
0.042

Given the variant M29N , what is its reported abundance fitness?
0.226

Given the variant L47F , what is its reported abundance fitness?
0.046

Given the variant F44S , what is its reported abundance fitness?
-0.272

Given the variant F4R , what is its reported abundance fitness?
-0.945

Given the variant G69S , what is its reported abundance fitness?
0.071

Given the variant G11E , what is its reported abundance fitness?
-0.01

Given the variant F4I , what is its reported abundance fitness?
-0.987

Given the variant D19W , what is its reported abundance fitness?
-0.024

Given the variant M29H , what is its reported abundance fitness?
0.124

Given the variant D8R , what is its reported abundance fitness?
0.081

Given the variant A71C , what is its reported abundance fitness?
-0.048

Given the variant T17W , what is its reported abundance fitness?
0.021

Given the variant D19T , what is its reported abundance fitness?
-0.059

Given the variant F4Q , what is its reported abundance fitness?
-0.868

Given the variant D8V , what is its reported abundance fitness?
0.039
